All figures here come from patent US6858638B2.

Reported values of inhibition at 10 µM for individual entries
SUBJECT OF TEST: human Tie2 (Homo sapiens, UniProt Q02763)
Construct: amino acids of the intracellular domain 776-1124; made in house; host or cells: baculovirus expression system (vector pFastBacGT)
Sequence (Q02763 776-1124): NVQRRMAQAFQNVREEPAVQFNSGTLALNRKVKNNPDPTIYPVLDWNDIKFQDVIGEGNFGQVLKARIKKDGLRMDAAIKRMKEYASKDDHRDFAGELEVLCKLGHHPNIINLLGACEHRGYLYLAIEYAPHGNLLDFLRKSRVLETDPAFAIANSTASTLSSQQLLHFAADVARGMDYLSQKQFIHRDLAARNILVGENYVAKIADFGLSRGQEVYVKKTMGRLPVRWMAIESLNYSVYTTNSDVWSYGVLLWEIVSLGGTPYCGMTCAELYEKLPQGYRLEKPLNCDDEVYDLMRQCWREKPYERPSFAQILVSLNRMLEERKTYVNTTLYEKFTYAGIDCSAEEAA
ASSAY REMARKS: Tie2 phosphorylation of PLC, FlashPlate radioactivity assay
Assay type: biochemical
TEST PARAMETERS: read-out: TIE2 % inhib at 10 μM
Dear colleague, please return just the value in %, with no unit written.

Solved entries (count: 2):
Item: `CS(=O)(=O)c1ccccc1S(=O)(=O)Nc1ccc2[nH]nc(Cl)c2c1` Test system: human Tie2 (Homo sapiens, UniProt Q02763) Read-out: inhibition at 10 µM Value: ?
18

Now the molecule `CS(=O)(=O)c1ccccc1S(=O)(=O)Nc1ccc2[nH]ncc2c1`
22

Next:
Provide the documented inhibition at 10 µM with human Tie2 (Homo sapiens, UniProt Q02763) as the system for `Cc1n[nH]c2ccc(NS(=O)(=O)c3cccc(F)c3)cc12`
29

Thanks! And `O=S(=O)(Nc1ccc2[nH]nc(-c3ccccc3)c2c1)c1ccc(Cl)c(Cl)c1` ?
56

Same for `Cc1n[nH]c2ccc(NS(=O)(=O)c3ccccc3S(C)(=O)=O)cc12`
33

Further, for `O=S(=O)(Nc1ccc2[nH]nc(Cl)c2c1)c1cccc(F)c1` ?
15

Same again, this time with `O=S(=O)(Nc1ccc2[nH]nc(-c3ccccc3)c2c1)c1cccc(F)c1`
74

Now give it for `CS(=O)(=O)c1ccccc1S(=O)(=O)Nc1ccc2[nH]nc(-c3ccccc3)c2c1` too.
86
